# measured_target: δ-opioid receptor (Homo sapiens)
# Construct: expressed in transfected cells; host or cells: CHO cells
# Sequence (P41143 whole entry): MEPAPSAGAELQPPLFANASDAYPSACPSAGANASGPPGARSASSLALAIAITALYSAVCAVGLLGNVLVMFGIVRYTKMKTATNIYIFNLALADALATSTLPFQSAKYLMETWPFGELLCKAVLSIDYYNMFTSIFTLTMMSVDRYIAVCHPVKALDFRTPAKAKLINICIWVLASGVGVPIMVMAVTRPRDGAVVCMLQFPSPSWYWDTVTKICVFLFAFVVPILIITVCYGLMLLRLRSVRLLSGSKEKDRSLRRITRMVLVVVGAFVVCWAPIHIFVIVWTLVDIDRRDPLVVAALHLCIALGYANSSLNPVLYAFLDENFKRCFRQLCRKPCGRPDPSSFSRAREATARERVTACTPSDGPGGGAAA
# assay_explanation: biochemical
# Assay type: binding
# protocol_conditions: Ki (nM) ± SEM, δ, Table 1b, N-oxides

{"molecule": "O=C(N[C@@H]1CC[C@@]2(O)[C@H]3Cc4ccc(O)c5c4[C@@]2(CC[N+]3([O-])CC2CC2)[C@H]1O5)c1ccc(Br)cc1 (stereo partly drawn)", "unit_descriptor": "nM", "Ki": 246}
{"molecule": "COc1cccc(C(=O)N[C@@H]2CC[C@@]3(O)[C@H]4Cc5ccc(O)c6c5[C@@]3(CC[N+]4([O-])CC3CC3)[C@H]2O6)c1 (stereo partly drawn) [Compound 30]", "unit_descriptor": "nM", "Ki": 444}
{"molecule": "O=C(N[C@@H]1CC[C@@]2(O)[C@H]3Cc4ccc(O)c5c4[C@@]2(CC[N+]3([O-])CC2CC2)[C@H]1O5)c1ccc(Cl)c(Cl)c1 (stereo partly drawn)", "unit_descriptor": "nM", "Ki": 212}
